Consider compounds characterized by their IC50 with Insulin receptor (Homo sapiens, UniProt P06213).
Sequence (P06213 28-758 limits assumed): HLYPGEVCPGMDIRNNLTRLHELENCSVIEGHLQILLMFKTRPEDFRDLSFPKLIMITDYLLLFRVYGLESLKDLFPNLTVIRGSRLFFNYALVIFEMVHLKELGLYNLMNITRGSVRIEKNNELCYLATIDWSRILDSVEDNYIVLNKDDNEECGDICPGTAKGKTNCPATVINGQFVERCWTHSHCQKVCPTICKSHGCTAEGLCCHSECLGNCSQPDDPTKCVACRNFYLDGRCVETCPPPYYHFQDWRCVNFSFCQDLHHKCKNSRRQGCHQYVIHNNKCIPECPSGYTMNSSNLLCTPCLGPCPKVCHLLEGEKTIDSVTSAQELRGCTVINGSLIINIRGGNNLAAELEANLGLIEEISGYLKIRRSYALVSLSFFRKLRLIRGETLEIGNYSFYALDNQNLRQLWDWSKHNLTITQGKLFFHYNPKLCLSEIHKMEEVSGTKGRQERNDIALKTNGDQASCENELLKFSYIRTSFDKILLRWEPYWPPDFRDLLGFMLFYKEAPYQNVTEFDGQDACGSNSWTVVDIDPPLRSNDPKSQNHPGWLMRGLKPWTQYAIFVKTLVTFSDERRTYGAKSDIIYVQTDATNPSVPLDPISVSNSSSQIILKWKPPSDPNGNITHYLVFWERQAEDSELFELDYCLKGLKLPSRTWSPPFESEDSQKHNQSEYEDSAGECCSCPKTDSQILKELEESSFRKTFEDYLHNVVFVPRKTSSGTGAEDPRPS
Sequence (P06213 763-1382 limits assumed): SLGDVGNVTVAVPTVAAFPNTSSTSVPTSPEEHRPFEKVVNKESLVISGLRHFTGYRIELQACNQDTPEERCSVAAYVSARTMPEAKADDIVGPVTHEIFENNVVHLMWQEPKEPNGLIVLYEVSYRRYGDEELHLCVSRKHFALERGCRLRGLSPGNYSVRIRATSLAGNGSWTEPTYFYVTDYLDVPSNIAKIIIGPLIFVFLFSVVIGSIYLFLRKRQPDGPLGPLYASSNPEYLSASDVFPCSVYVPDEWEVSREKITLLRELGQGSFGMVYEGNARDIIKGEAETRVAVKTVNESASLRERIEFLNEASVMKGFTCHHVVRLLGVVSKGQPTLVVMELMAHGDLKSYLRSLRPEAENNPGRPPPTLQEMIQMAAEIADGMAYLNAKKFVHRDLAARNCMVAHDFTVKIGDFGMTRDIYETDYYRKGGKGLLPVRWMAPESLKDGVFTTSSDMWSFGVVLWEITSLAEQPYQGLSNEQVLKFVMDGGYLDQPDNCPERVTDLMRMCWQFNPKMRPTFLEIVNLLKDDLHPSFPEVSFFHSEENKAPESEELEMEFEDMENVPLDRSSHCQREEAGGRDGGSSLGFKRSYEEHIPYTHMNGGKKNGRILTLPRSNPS

{"smiles-notation": "CNc1cc(Nc2ccc(-c3nc4ccccc4s3)cc2)ccn1", "experimental-target": "Insulin receptor (Homo sapiens, UniProt P06213)", "IC50": "> 10 µM"}
{"smiles-notation": "COc1cc2ncnc(Nc3ccc(-c4nc5ccccc5s4)cc3)c2cc1OC", "experimental-target": "Insulin receptor (Homo sapiens, UniProt P06213)", "IC50": "> 10 µM"}
{"smiles-notation": "c1ccc2sc(-c3ccc(Nc4ncnc5nc[nH]c45)cc3)nc2c1", "experimental-target": "Insulin receptor (Homo sapiens, UniProt P06213)", "IC50": "> 10 µM"}
{"smiles-notation": "COc1cc2ncnc(Nc3ccc(-c4nc5ccccc5s4)cc3C)c2cc1OC", "experimental-target": "Insulin receptor (Homo sapiens, UniProt P06213)", "IC50": "> 10 µM"}

====

target: Insulin receptor (Homo sapiens)
Each entry below carries its recorded IC50.

{"smiles-notation": "COc1cc(Nc2ncnc3nc[nH]c23)ccc1-c1nc2ccccc2s1", "IC50": "> 10 µM"}
{"smiles-notation": "COc1cc2ncnc(Nc3ccc(N4Cc5ccccc5C4)cc3)c2cc1OC", "IC50": "7.9 µM"}
{"smiles-notation": "Fc1cc(-c2nc3ccccc3s2)ccc1Nc1ncnc2ccsc12", "IC50": "> 10 µM"}
{"smiles-notation": "COc1cc(Nc2ccnc3cc(Cl)ccc23)ccc1-c1nc2ccccc2s1", "IC50": "> 10 µM"}
{"smiles-notation": "Cc1cc(Nc2cc(Nc3ccc(-c4nc5ccccc5s4)cc3)ccn2)[nH]n1", "IC50": "> 10 µM"}
{"smiles-notation": "COc1cc2ncnc(Nc3ccc(-c4nc5ccccc5s4)c(OC)c3)c2cc1OC", "IC50": "> 10 µM"}
{"smiles-notation": "CNc1nccc(Nc2ccc(-c3nc4ccccc4s3)cc2)n1", "IC50": "9.7 µM"}
{"smiles-notation": "COc1cc2nc(Nc3cc(C)n[nH]3)nc(Nc3ccc(-c4nc5ccccc5s4)cc3)c2cc1OC", "IC50": "2.15 µM"}
{"smiles-notation": "CNC(=O)c1cc(Nc2ccc(-c3nc4ccccc4s3)cc2)ccn1", "IC50": "> 10 µM"}
{"smiles-notation": "Cc1cc(Nc2ccnc(Nc3cccc(-c4nc5ccccc5s4)c3)n2)n[nH]1", "IC50": "1.6 µM"}

====

target: Cyclin-dependent kinase 2 (Homo sapiens, UniProt P24941); assay: Inhibition of CDK2 by virtual HTS assay

{"smiles-notation": "O=C(NC(=S)Nc1ccc(O)c(-c2nc3ccccc3s2)c1)c1ccc([N+](=O)[O-])cc1", "IC50 (nM)": 700}

====

Each entry below carries its recorded pIC50.
Target: Ephrin type-B receptor 4 (Homo sapiens, UniProt P54760)
Sequence (P54760 whole entry): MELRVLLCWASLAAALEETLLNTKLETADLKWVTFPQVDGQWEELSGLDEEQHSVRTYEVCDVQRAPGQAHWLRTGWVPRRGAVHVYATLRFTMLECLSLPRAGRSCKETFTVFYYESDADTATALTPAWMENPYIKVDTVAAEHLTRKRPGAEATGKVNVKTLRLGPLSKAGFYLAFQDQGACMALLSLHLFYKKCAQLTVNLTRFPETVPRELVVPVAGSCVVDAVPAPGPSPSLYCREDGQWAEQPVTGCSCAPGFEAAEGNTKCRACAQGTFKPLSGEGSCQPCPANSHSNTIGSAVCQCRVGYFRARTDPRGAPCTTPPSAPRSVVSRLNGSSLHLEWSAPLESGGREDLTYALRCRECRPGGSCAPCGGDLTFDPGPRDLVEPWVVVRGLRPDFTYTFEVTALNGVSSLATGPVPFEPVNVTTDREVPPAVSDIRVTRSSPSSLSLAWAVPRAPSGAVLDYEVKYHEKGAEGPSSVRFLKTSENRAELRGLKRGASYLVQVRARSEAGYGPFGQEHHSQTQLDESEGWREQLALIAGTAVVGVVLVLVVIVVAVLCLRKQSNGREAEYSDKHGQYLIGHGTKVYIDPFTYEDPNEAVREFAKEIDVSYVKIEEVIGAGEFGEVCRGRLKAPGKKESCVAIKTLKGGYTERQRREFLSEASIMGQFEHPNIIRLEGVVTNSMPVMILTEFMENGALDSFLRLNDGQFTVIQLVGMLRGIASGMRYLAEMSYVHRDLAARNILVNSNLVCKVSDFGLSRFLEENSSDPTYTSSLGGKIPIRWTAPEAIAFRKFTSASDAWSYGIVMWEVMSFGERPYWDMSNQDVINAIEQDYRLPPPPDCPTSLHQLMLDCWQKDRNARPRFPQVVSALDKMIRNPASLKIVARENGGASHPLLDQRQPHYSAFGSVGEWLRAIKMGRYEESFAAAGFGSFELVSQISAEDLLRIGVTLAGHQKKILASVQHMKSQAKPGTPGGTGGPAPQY
pIC50: −log10 of the molar value.
readout-kind: pIC50

{"smiles-notation": "COc1cc2ncnc(Nc3ccc(-c4nc5ccccc5s4)cc3C)c2cc1OC", "measured": "< 5.00"}
{"smiles-notation": "COc1cc(Nc2ccnc3cc(Cl)ccc23)ccc1-c1nc2ccccc2s1", "measured": "< 5.00"}
{"smiles-notation": "COc1cc2nc(Nc3cc(C)n[nH]3)nc(Nc3ccc(-c4nc5ccccc5s4)cc3)c2cc1OC", "measured": 5.48}
{"smiles-notation": "Cc1cc(Nc2ccnc(Nc3cccc(-c4nc5ccccc5s4)c3)n2)n[nH]1", "measured": "< 5.00"}
{"smiles-notation": "COc1cc2ncnc(Nc3ccc(-c4nc5ccccc5s4)c(OC)c3)c2cc1OC", "measured": "< 5.00"}
{"smiles-notation": "O=C(NC(=S)Nc1ccc(O)c(-c2nc3ccccc3s2)c1)c1ccc([N+](=O)[O-])cc1", "measured": 6.21}
{"smiles-notation": "Cc1cc2c(Nc3ccc(-c4nc5ccccc5s4)cc3)ncnc2cc1Cl", "measured": "< 5.00"}
{"smiles-notation": "Clc1ccc2c(Nc3ccc(-c4nc5ccccc5s4)cc3)ccnc2c1", "measured": 5.85}

This collection of values is drawn from ChEMBL document CHEMBL1153282.
